target: UniProtKB P35354; assay: Fast assay for COX-2 activity (PGE2 ELISA); assay type: biochemical, human or murine; conditions: fast assay: 10 min pre-incubation at 25° C., reaction stopped after two minutes, pH 7.5
# Lookup of reported IC50 keyed by entry
measuredParameter: IC50 (nM)

* O=C(O)C1=Cc2cc(Cl)cc(F)c2OC1C(F)(F)F (stereo not shown) | 200
* O=C(O)C1=Cc2cc(C(=O)c3ccccc3)ccc2OC1C(F)(F)F (stereo not shown) | 200
* CN(C)S(=O)(=O)c1ccc2c(c1)C=C(C(=O)O)C(C(F)(F)F)O2 (stereo not shown) | 79000
* O=C(O)C1=Cc2cc(F)cc(Br)c2OC1C(F)(F)F (stereo not shown) | 99000

----------
biological target: COX-2 (UniProt P35354); test: Assay for COX-2 activity (PGE2 ELISA); conditions: read-out: COX-2 IC50; 10–20 minutes pre-incubation, reaction stopped after ten minutes, pH 8.0
Reported IC50 is given for each of the following molecules.
measuredParameter: IC50

• O=C(O)C1=Cc2cc(Cl)c(I)cc2OC1C(F)(F)F (stereo not drawn) [Example 180] = < 100 nM
• O=C(O)C1=Cc2cc(C(F)F)ccc2OC1C(F)(F)F (stereo not drawn) [Example 81] = < 100 nM
• O=C(O)C1=Cc2cc(Cl)c(Sc3ccc(Cl)cc3)cc2OC1C(F)(F)F (stereo not drawn) [Example 192] = 1400 nM
• COc1cc(Br)cc2c1OC(C(F)(F)F)C(C(=O)O)=C2 (stereo not drawn) [Example 47] = 1700 nM
• O=C(O)C1=Cc2cc(Br)cc(Cl)c2OC1C(F)(F)F (stereo not drawn) [Example 42] = < 100 nM
• O=C(O)C1=Cc2cc(Cl)c(Oc3ccc(F)c(F)c3)cc2OC1C(F)(F)F (stereo not drawn) [Example 198] = < 100 nM
• C=Cc1cc2c(cc1Cl)C=C(C(=O)O)C(C(F)(F)F)O2 (stereo not drawn) [Example 182] = > 100000 nM
• CSc1ccc2c(c1)C=C(C(=O)O)C(C(F)(F)F)O2 (stereo not drawn) [Example 2] = < 100 nM
• O=C(O)C1=Cc2cc(Cl)cc(C#Cc3ccccc3)c2OC1C(F)(F)F (stereo not drawn) [Example 120] = < 100 nM
• N#Cc1ccc(Oc2cc3c(cc2Cl)C=C(C(=O)O)C(C(F)(F)F)O3)cc1 (stereo not drawn) [Example 185] = < 100 nM
• O=C(O)C1=Cc2cc(Cl)c(Oc3cccnc3Cl)cc2OC1C(F)(F)F (stereo not drawn) [Example 200] = < 100 nM
• O=C(O)C1=Cc2cc(Cl)cc(-c3ccc(Cl)cc3)c2OC1C(F)(F)F (stereo not drawn) [Example 125] = < 100 nM
• C#Cc1cc2c(cc1Cl)C=C(C(=O)O)C(C(F)(F)F)O2 (stereo not drawn) [Example 181] = > 100000 nM
• O=C(O)C1=Cc2cc(Cl)cc(-c3ccccc3)c2OC1C(F)(F)F (stereo not drawn) [Example 129] = < 100 nM
• O=C(O)C1=Cc2cc(Cl)cc(Cl)c2SC1C(F)(F)F (stereo not drawn) [Example 156] = < 100 nM

----------
Counter-ions that a name gives are not always drawn.
melting point listing for selected compounds.
measuredParameter: melting point

- CCN(CC)S(=O)(=O)c1ccc2c(c1)C=C(C(=O)O)C(C(F)(F)F)O2 (centres unmarked): 238 to 240 °C
- O=C(O)C1=Cc2cc(Cl)c(Oc3cccc(C(=O)O)c3)cc2OC1C(F)(F)F (centres unmarked) (as salt: potassium): 288.1 to 289.2 °C
- O=C(O)C1=Cc2cc(Cl)c(Oc3ccccc3Cl)cc2OC1C(F)(F)F (centres unmarked): 199 to 199.1 °C
- O=C(O)C1=Cc2cc(Oc3ccc(Cl)cc3)cc(Cl)c2OC1C(F)(F)F (centres unmarked): 227.8 to 228.9 °C
- C#Cc1cc2c(cc1Cl)C=C(C(=O)O)C(C(F)(F)F)O2 (centres unmarked): > 300 °C
- Cc1cccc2c1SC(C(F)(F)F)C(C(=O)O)=C2 (centres unmarked): 224 to 225 °C
- CN1c2ccc(Cl)cc2C=C(C(=O)O)C1C(F)(F)F (centres unmarked): 208 to 209 °C
- CCCC#Cc1cc(Cl)cc2c1OC(C(F)(F)F)C(C(=O)O)=C2 (centres unmarked): 168.1 to 171.2 °C
- O=C(O)C1=Cc2cc(C#Cc3ccccc3)ccc2OC1C(F)(F)F (centres unmarked): 240.1 to 241.3 °C
- O=C(O)C1=Cc2cc(Cl)cc(-c3ccc(Cl)cc3)c2OC1C(F)(F)F (centres unmarked): 205.5 to 207.3 °C
- O=C(O)C1=Cc2cc(Cl)ccc2N(Cc2ccc(Cl)cc2)C1C(F)(F)F (centres unmarked): 250 to 253 °C
- O=C(O)C1=C(c2ccccc2)c2cc(Cl)ccc2OC1C(F)(F)F (centres unmarked): 225.5 to 226.6 °C
- COc1ccc(C#Cc2cc(Cl)cc3c2OC(C(F)(F)F)C(C(=O)O)=C3)cc1 (centres unmarked): 217.7 to 218.7 °C
- COc1ccc(-c2cc(Cl)cc3c2OC(C(F)(F)F)C(C(=O)O)=C3)cc1 (centres unmarked): 194 to 196 °C
- O=C(O)C1=Cc2cc(F)cc(Cl)c2OC1C(F)(F)F (centres unmarked): 240 to 241 °C
- O=C(O)C1=Cc2cc(Br)cc(Br)c2OC1C(F)(F)F (centres unmarked): 225 to 226 °C
- O=C(O)C1=Cc2c(Cl)cc(Cl)cc2OC1C(F)(F)F (centres unmarked): 190.1 to 191.2 °C
